tested on: MS2 coat protein; assay: apparent KD of MS2 coat protein; designed switch direction (-1 OFF switch, 1 ON switch): -1; higher = weaker reporter binding; settings: input ligand: none
ASSAY ENDPOINT: apparent KD of MS2 coat protein (µM)

- SEQ: "AUAAAACGUGUAGGAUAUGCGUGGCGAAGCUAUGCAGAAGGACAUGAGGAUCACCCAUGUUCUAGCGUCUGCGUACAGAUGCUA [JL eng1 1.35 mod 4] (Eterna round: R96, puzzle: Exclusion NG 1)"
  ASSAY ENDPOINT: "apparent KD of MS2 coat protein"
  OBSERVED VALUE: 0.0148
- SEQ: "CGCGCCUGGGUCGAACGACACAUGAGGAUCACCCAUGUCAGAGGCGUAGAAUGCACAAGCUUUGACCUCGUUACGCU [Eternabot (L2) Solution 39] (Eterna round: R97, puzzle: Sensor, turn-off variant 1)"
  ASSAY ENDPOINT: "apparent KD of MS2 coat protein"
  OBSERVED VALUE: 0.0185
- SEQ: "GUCAGCUCGUGAGGAUAUGCACAUGAGGAUCACCCAUGUAAGAUCAAGCUGCUUCGGCAGCAAGUGCAGAAGGUACGAGCUGAC [ENG2/9-C1] (Eterna round: R96, puzzle: Exclusion NG 2)"
  ASSAY ENDPOINT: "apparent KD of MS2 coat protein"
  OBSERVED VALUE: 0.297
- SEQ: "UGAUCAGACCGAGGAUAUACAUGUAGGACGCACGUGAGUGCGUCCAGUACAUGAGGAUCACCCAUGUAGAAGGCGGUCUGAUCU [JL ENG2 1.95] (Eterna round: R96, puzzle: Exclusion NG 2)"
  ASSAY ENDPOINT: "apparent KD of MS2 coat protein"
  OBSERVED VALUE: 0.0761
